# System: SW-620 colon
# Measurement Description: NCI-60 one-dose screen, 48 h (100 = growth as untreated, 0 = no growth, -100 = all killed)
# Experimental Setup: 10 µM unless noted
Compounds without any hit were thinned out: in the full panel of roughly 83,000, 20% have a hit.
Catalogue of growth readings, one per entry.
Test Readout: growth (%)

| Compound | U | Value |
| --- | --- | --- |
| CCN(CC)C(=O)C1CCN(C(=O)c2ccccc2)CC1 | % | 101 |
| COc1cc(/C=C/C(=O)c2c(C)[n+]([O-])c3ccccc3[n+]2[O-])ccc1O | % | 92.9 |
| COc1cc(CN(c2ccc(Cl)cc2)C2OC(=O)c3ccccc32)cc(OC)c1OC (stereo not drawn) | % | 30.8 |

---

# System: SNB-75 CNS
# Measurement Description: NCI-60 one-dose screen, 48 h
# Experimental Setup: 10 µM unless noted
Compounds without any hit were thinned out: in the full panel of roughly 83,000, 20% have a hit. Activity calls are given as the source filed them. The calls were made as follows: active = growth percent below 10; inactive = the rest.
Labels: active, inactive

| Compound | Group |
| --- | --- |
| O=[N+]([O-])c1cccc(C(c2ccccc2)c2ccccc2)c1 | inactive |
| C/C(=N/NC(=O)Cn1c2ccccc2c2ccncc21)c1cccs1 | inactive |
| O=C(O)c1cc2ccccc2cc1Nc1ccccc1 | inactive |
| Nc1ncnc2c1c(-c1ccc(Oc3ccccc3)cc1)nn2C[C@H]1SSC[C@@H]1O | inactive |
| COc1ccc(C2=NN(C(=O)COc3ccc(Cl)cc3)C(O)(c3cc(F)c(Cl)cc3Cl)C2)cc1OC (stereo unspecified) | active |
| Cc1cc(O[C@@H]2O[C@@H](C)[C@H](O)[C@@H](O)[C@H]2O)c2c3c(c(O[C@@H]4O[C@@H](C)[C@H](O)[C@@H](O)[C@H]4O)cc2c1)C(=O)c1c(O)cccc1C3=O | inactive |

---

# System: OVCAR-3 ovarian
# Measurement Description: NCI-60 one-dose screen, 48 h (100 = growth as untreated, 0 = no growth, -100 = all killed)
# Experimental Setup: 10 µM unless noted
About 83,000 compounds went through this panel and 20% of them were active in at least one assay; those are over-represented in the sample as a whole.
growth values for the compounds below.
Test Readout: growth (%)

| Compound | Test Target | Test Readout | Value |
| --- | --- | --- | --- |
| CC[C@H]1[C@@H]2C=C[C@@H]3[C@H]4C/C=C\C(=O)NCCC[C@@H]5NC(=O)/C(=C(O)/C=C/[C@@H]4C[C@@H]3[C@H]2C[C@H]1C)C5=O | OVCAR-3 ovarian | growth | -94.7 |
| CCc1cccc(C)c1NC(=O)c1sc2nc3c(cc2c1N)CCCCC3 | OVCAR-3 ovarian | growth | 3.96 |
| Cc1nc(N)nc(SCc2ccccc2)c1Br | OVCAR-3 ovarian | growth | 107 |
| CC(C)CNCC(=O)Nc1ccc(Cc2ccc(NC(=O)CNCC(C)C)cc2)cc1 | OVCAR-3 ovarian | growth | 74.5 |
| Fc1ccc(Nc2ncnc3ccc(-c4cn[nH]c4)cc23)cc1Cl | OVCAR-3 ovarian | growth | 50.6 |
| c1ccc(CNCCN(CCNCc2ccccn2)Cc2ccc3ccccc3c2)nc1 | OVCAR-3 ovarian | growth | 1.32 |
| O=C1CCC(c2c(O)cc(O)c3c(=O)c(O)c(-c4ccc(O)c(O)c4)oc23)N1 (stereo not given) | OVCAR-3 ovarian | growth | 101 |
| CN(C)c1ccc2cc(-c3nc4ccccc4s3)c(N)nc2c1 | OVCAR-3 ovarian | growth | 11.9 |
| C=C1C(=O)O[C@H]2[C@H]1CC/C(COC(=O)CCCC(=O)OC/C1=C/CC[C@@]3(C)O[C@H]3[C@H]3OC(=O)C(=C)[C@@H]3CC1)=C\CC[C@@]1(C)O[C@@H]21 | OVCAR-3 ovarian | growth | -46.6 |
| c1ccc2c(c1)Oc1cccnc1-n1nccc1-2 | OVCAR-3 ovarian | growth | 108 |
| O=C(CSc1nnc(-c2ccccc2)o1)Nc1ccc(C(=O)/C=C/c2ccccc2)cc1 | OVCAR-3 ovarian | growth | 41.8 |
| COc1ccc(N)c(S)c1 | OVCAR-3 ovarian | growth | 110 |
| CCOC(=O)C1CSC(C)(C(=O)OCC)N1 (stereo not given) | OVCAR-3 ovarian | growth | 100 |
| COC(=O)Nc1nc2ccc(Sc3ccccc3)cc2[nH]1 | OVCAR-3 ovarian | growth | -78.1 |
| COc1cc(Br)c(-c2nc(-c3ccccc3)c(-c3ccccc3)n2Cc2ccccc2)cc1OC | OVCAR-3 ovarian | growth | 68.6 |

---

# Tested on: PC-3 prostate
# Measurement Description: NCI-60 one-dose screen, 48 h
# Experimental Setup: 10 µM unless noted
Compounds without any hit were thinned out: in the full panel of roughly 83,000, 20% have a hit. Activity calls are given as the source filed them. The calls were made as follows: active = growth percent below 10; inactive = the rest.
Labels: active, inactive

| Compound | Test Target | Group |
| --- | --- | --- |
| COc1ccc2c(c1)/C(=C/c1c(-c3cc(OC)c(OC)c(OC)c3Br)nc3sccn13)C(=O)N2 | PC-3 prostate | inactive |
| Nc1ncnc2c1c(-c1ccc(Oc3ccccc3)cc1)nn2C[C@@H]1SSC[C@H]1O | PC-3 prostate | inactive |
| O=C(O)c1cccc(S(=O)(=O)c2ccccc2)c1 | PC-3 prostate | inactive |
| O=c1c2ccccc2[nH]n1Cc1ccc2c(c1)OCO2 | PC-3 prostate | inactive |
| Nc1ccc(S(=O)(=O)Nc2cc(I)cc(I)c2)cc1 | PC-3 prostate | inactive |
| O=C(Nc1ccc(F)cc1)Nc1ccc(Br)c(C(F)(F)F)c1 | PC-3 prostate | active |
| COc1ccc(/C=C2/C(=O)Nc3cc(Cl)c(-c4csc(N)n4)cc32)cc1 | PC-3 prostate | inactive |
| CCNc1ncnc2n[nH]nc12 | PC-3 prostate | inactive |
| CCC1S/C(=N\N=C(/C)c2ccco2)N(c2ccccc2)C1=O (stereo not drawn) | PC-3 prostate | inactive |
| CCn1c(SC)nnc1-c1cc2c([nH]c3ccccc32)c(-c2cccc(O)c2)n1 | PC-3 prostate | inactive |
| COc1ccc(Cl)cc1NC(=O)c1cc2c(n1C)-c1nc(NC(=O)C(C)(C)C)sc1CC2 | PC-3 prostate | inactive |
| Cc1cc2c(cc1C)N(C(=O)CCl)CCN2C(=O)CCl | PC-3 prostate | active |
| CCOC(=O)c1cnc2c(OC)ccc(OC)c2c1Cl | PC-3 prostate | inactive |
| C=CCOc1ccc(/C(Cl)=N/N=C(\Cl)c2cc(OC)c(OC)c(OC)c2)cc1 | PC-3 prostate | inactive |
| O=C(Nc1ccc(-n2cc(-c3ccncc3)c(-c3ccc(O)c(Cl)c3)n2)cc1)c1cc(C(F)(F)F)cc(C(F)(F)F)c1 | PC-3 prostate | inactive |
| O=C(Nc1cccc(-n2ccc3c(NC(=O)c4ccccc4)nccc32)c1)c1cccc(C(F)(F)F)c1 | PC-3 prostate | inactive |
| CC(Cl)(CCl)CS(=O)(=O)c1ccc(Cl)cc1 (stereo not drawn) | PC-3 prostate | inactive |
| C=C(C)[C@@H]1C/C=C(\COC(=O)[C@H](OC(C)=O)C(NC(=O)c2ccccc2)c2ccccc2)CC[C@H]2O[C@]2(C)CC/C=C(\C)CC1 (stereo partly drawn) | PC-3 prostate | inactive |
| COc1cc(C(=O)N2CCN(C(=O)c3cc(OC)c(OCc4ccccc4)cc3N)CC2)c(N)cc1OCc1ccccc1 | PC-3 prostate | inactive |
| Cc1ccc(NC(=O)CN2CCOCC2)cc1Cl | PC-3 prostate | inactive |
| O=C(Nc1cccc([N+](=O)[O-])c1)Nc1cccc([N+](=O)[O-])c1 | PC-3 prostate | inactive |
| C#CCn1c(-c2cc(OC)c(OC)cc2Br)nc(-c2ccccc2)c1-c1ccccc1 | PC-3 prostate | inactive |
| O=C(Nc1ccc(-n2ccc3c(NC(=O)c4ccccc4)ncnc32)cc1)Nc1ccc(Cl)c(C(F)(F)F)c1 | PC-3 prostate | active |
| COC(=O)/C=C/C(=O)c1cc(C)cc(C)c1O | PC-3 prostate | inactive |
| CN(C)CCCOc1c(Br)cc(/C=C/C(=O)N(C)CCc2cc(Br)c(OCCCN(C)C)c(Br)c2)cc1Br | PC-3 prostate | inactive |
| O=C1c2ccccc2OC=C(c2ccccc2)N1CCCCN1CCCCC1 | PC-3 prostate | inactive |
| N#Cc1c(N)nc(Cl)c(C#N)c1C(=O)c1ccccc1 | PC-3 prostate | inactive |
| NC(=NCCCOc1ccc(F)cc1)Nc1ccc(Cl)c(Cl)c1 | PC-3 prostate | inactive |

---

# Tested on: OVCAR-5 ovarian
# Measurement Description: NCI-60 one-dose screen, 48 h (100 = growth as untreated, 0 = no growth, -100 = all killed)
# Experimental Setup: 10 µM unless noted
This is part of a sample that, as a whole, favours compounds with a hit. Of some 83,000 tested, about 20% had one in any assay.
Parameter: growth. Scope: all listed entries.
Test Readout: growth (%)

| Query Smiles | Value |
| --- | --- |
| Cc1ccc[n+](CC(=O)c2cccc3ccccc23)c1 | 98.6 |
| O=C(CSc1nnc(-c2ccc(Cl)cc2)o1)Nc1ccc(C(=O)/C=C/c2ccccc2)cc1 | 106 |
| CN(C)c1ncc(C#Cc2c(F)cccc2F)c2ccccc12 | 99.8 |
| O=C(Nc1ccc(-n2cc(-c3ccncc3)c(-c3ccc(O)c(Cl)c3)n2)cc1)c1cc(C(F)(F)F)cc(C(F)(F)F)c1 | 70.9 |
| C=CCn1c(SCC(=O)Nc2ccc(/C(C)=N\O)cc2)nnc1-c1cc(-c2ccc(OC)cc2)nc2ccccc12 | 79.4 |
| Nc1ncc(-c2ccc3ncnc(Nc4cncc(Cl)c4)c3c2)cn1 | 52 |
| C#C[C@H](O)/C=C/CCCCCCC#C[C@H](O)CC[C@@H](O)C#CCCCCCC/C=C/[C@@H](O)C#C | 111 |
| Cc1[nH]c2ccc(F)cc2c1CCNC(=O)C1CCN(C(=O)c2ccc(-c3ccccc3)cc2)CC1 | 90.1 |
| O=C(NC(=S)Nc1ccc(Cl)cc1)c1ccccc1 | 84.8 |
| Cc1ccc(-c2cn3cc([N+](=O)[O-])ccc3n2)cc1 | 109 |
| CCN(CC)CCNc1ccc([N+](=O)[O-])c2sc3cc(Cl)ccc3c(=O)c12 | 38.7 |
| Cc1cc[n+](CCCC[n+]2ccc(C)cc2)cc1 | 104 |
| CSc1nc(N)nc2c1ncn2C | 100 |
| O=C(N/N=C/c1ccccc1O)c1ccccc1O | 55.3 |
| COc1ccc(C(=O)NC(=O)Nc2ccc3c(c2)NC(=O)/C3=C\c2[nH]c(C)c(C(=O)O)c2C)cc1 | 121 |
| CC1(C)N=C(N)N=C(N)N1c1ccc(F)c(C(F)(F)F)c1 | 41.8 |
| COc1ccc(-c2nn(-c3cccc(Cl)c3)cc2-c2cc(-c3ccc(Br)cc3)[nH]c(=O)c2C#N)cc1 | 105 |
| COc1ccc(Cl)cc1NC(=O)c1cc2c(n1C)-c1nc(NC(=O)C(C)(C)C)sc1CC2 | 104 |
| C#C[C@@]1(O)[C@@H](CO)O[C@@H](n2cc(Br)c3c(Cl)ccnc32)[C@@H]1O | 40.8 |
| O=[N+]([O-])c1cccc(C(c2ccccc2)c2ccccc2)c1 | 85.6 |
| NN=C(c1ccc(Cl)cc1)c1ccc(Cl)cc1 | 95 |
| COc1ccc(-c2c(NC(=O)Nc3ccc(Cl)c(C(F)(F)F)c3)cnn2-c2ccc(S(N)(=O)=O)cc2)cc1 | 60.6 |
| COc1ccc(-c2nnc(SCC(=O)N3CCN(c4cc5c(cc4F)c(=O)c(C(=O)O)cn5C4CC4)CC3)o2)cc1OC | 96.2 |
| COc1cc(Nc2ncccc2C(=O)Nc2nc3ccc(F)cc3s2)cc(OC)c1OC | 105 |
| COc1ccc(-c2nnc(SCC(=O)Nc3ccc(C(=O)/C=C/c4ccc(Cl)cc4)cc3)o2)cc1OC | 90.5 |
